Hello, the source for this data is PubChem BioAssay, in case you need it.

viability values by entry
assay: viability of PTEN-null HCT116 cells – cell-based, HCT116 clonal line, CellTiter-Glo, pilot screen (AID 824); conditions: HCT116 PTEN-deleted viability, 60 h, at 10 µM, active compounds read low;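 further: 0% = 20 µM Hyamine control and 100% = vehicle cell control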
Inconclusive results are not listed.
Supply the numeric figure in %, leaving out any unit text.

[[record]]
compound = "CCCCCCOc1ccc(CN2CCN(C)CC2)cc1"
readout_type = "viability"
recorded_number = 49


Ask: Quick check: viability of Cc1ccnc(-n2c(C)nc3ccccc3c2=O)c1 ?
Result: 90.7

Ask: Proceed to Cc1c(C(=O)N2CCC3(CC2)OCCO3)oc2ccc(S(=O)(=O)N3CCOCC3)cc12
Result: 98.4
